Cited source: patent EP4445957A1

# experimental-system: EcwtSC (Escherichia coli, UniProt P0A988)
# Sequence (P0A988 whole entry): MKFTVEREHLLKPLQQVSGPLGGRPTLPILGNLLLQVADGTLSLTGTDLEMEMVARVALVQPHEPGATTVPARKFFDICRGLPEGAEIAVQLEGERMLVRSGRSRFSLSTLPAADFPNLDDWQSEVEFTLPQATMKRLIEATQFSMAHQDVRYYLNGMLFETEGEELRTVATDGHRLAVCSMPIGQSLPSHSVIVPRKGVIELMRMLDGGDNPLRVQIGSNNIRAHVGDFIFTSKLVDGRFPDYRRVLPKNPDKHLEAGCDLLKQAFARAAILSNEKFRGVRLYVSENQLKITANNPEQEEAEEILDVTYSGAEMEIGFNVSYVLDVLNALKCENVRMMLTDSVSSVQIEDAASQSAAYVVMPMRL
# assay-remarks: Isothermal Titration Calorimetry (ITC/kinITC), wild-type sliding clamp
# Format: binding, E. coli
# setup-conditions: R1 buffer, 25 °C (298.15K)
Square brackets hold non-standard residues; d marks the D form. Peptide text beside a SMILES is read from it. * marks the point of attachment. Cha = N[C@@H](CC1CCCCC1)C(=O)O; Crotonyl(E) = C/C=C/C(=O)*; Dap = NC[C@H](N)C(=O)O; Acryloyl = C=CC(=O)*; ClAc = O=C(CCl)*; X1 = CC#CC(=O)*
endpoint-name: ΔG

compound | ΔG
C=CC(=O)NC[C@H](NC(=O)[C@H](CC1CCCCC1)NC(=O)[C@H](CCC(N)=O)NC(C)=O)C(=O)N[C@@H](CC(C)C)C(=O)N[C@@H](Cc1ccccc1)C(=O)O [Peptide 1, Ac-Gln-Cha-Dap(acrylamide)-Leu-Phe-OH] (Ac-Q[Cha][Dap](Acryloyl)LF-OH) | -9.2 (± 0.07) kcal/mol

Look up ΔG: C/C=C/C(=O)NC[C@H](NC(=O)[C@H](CC1CCCCC1)NC(=O)[C@H](CCC(N)=O)NC(C)=O)C(=O)N[C@@H](CC(C)C)C(=O)N[C@@H](Cc1ccccc1)C(=O)O [Peptide 3, Ac-Gln-Cha-Dap(but-2-enamide)-Leu-Phe-OH] (Ac-Q[Cha][Dap](Crotonyl(E))LF-OH)
-9.25 (± 0.01) kcal/mol

Now consider CC(=O)N[C@@H](CCC(N)=O)C(=O)N[C@@H](CC1CCCCC1)C(=O)N[C@@H](CNC(=O)CCl)C(=O)N[C@@H](CC(C)C)C(=O)N[C@@H](Cc1ccccc1)C(=O)O [Peptide 2] (Ac-Q[Cha][Dap](ClAc)LF-OH) and answer again.
-9.2 (± 0.1) kcal/mol

Now consider CC#CC(=O)NC[C@H](NC(=O)[C@H](CC1CCCCC1)NC(=O)[C@H](CCC(N)=O)NC(C)=O)C(=O)N[C@@H](CC(C)C)C(=O)N[C@@H](Cc1ccccc1)C(=O)O [Peptide 5, Ac-Gln-Cha-Dap(but-2-ynamide)-Leu-Phe-OH] (Ac-Q[Cha][Dap](X1)LF-OH) and answer again.
-9.8 (± 0.1) kcal/mol
